Assign viability, T/C to each entry below.
# Tested on: MDA-MB-231 multicell spheroids, viability
# assay-summary: Anticancer human tumor MDA-MB-231 cell line growth inhibition [PI3K];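 also: spheroids exposed to agents for seven days before reading; percent of vehicle control luminescence with DMSO treated spheroids as 100%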
# conditions-used: second compound 1 µM; first compound 0.01 µM; active compounds read low
Write it as a number; the unit % goes unstated.

Item: Cn1ncnc1[C@H]1c2n[nH]c(=O)c3cc(F)cc(c23)N[C@@H]1c1ccc(F)cc1 + COc1c(OCCCN2CCOCC2)ccc2c3n(c(=NC(=O)c4cnc(N)nc4)nc12)CCN3 Test system: MDA-MB-231 multicell spheroids, viability Read-out: viability, T/C Value: ?
23.5

Item: CC(C)n1nc(-c2ccc3oc(N)nc3c2)c2c(N)ncnc21 + CC(Nc1ccc2c(c1)OCCn1cc(N3C(=O)OCC3C(F)F)nc1-2)C(N)=O Test system: MDA-MB-231 multicell spheroids, viability Read-out: viability, T/C Value: ?
36.6

Item: CC(=O)c1c(C)c2cnc(Nc3ccc(N4CCNCC4)cn3)nc2n(C2CCCC2)c1=O + COc1c(OCCCN2CCOCC2)ccc2c3n(c(=NC(=O)c4cnc(N)nc4)nc12)CCN3 Test system: MDA-MB-231 multicell spheroids, viability Read-out: viability, T/C Value: ?
24

Item: Cn1ncnc1[C@H]1c2n[nH]c(=O)c3cc(F)cc(c23)N[C@@H]1c1ccc(F)cc1 + Cc1nc(NC(=O)N2CCCC2C(N)=O)sc1-c1ccnc(C(C)(C)C(F)(F)F)c1 Test system: MDA-MB-231 multicell spheroids, viability Read-out: viability, T/C Value: ?
60

Item: Cn1ncnc1[C@H]1c2n[nH]c(=O)c3cc(F)cc(c23)N[C@@H]1c1ccc(F)cc1 + CC(Nc1ccc2c(c1)OCCn1cc(N3C(=O)OCC3C(F)F)nc1-2)C(N)=O Test system: MDA-MB-231 multicell spheroids, viability Read-out: viability, T/C Value: ?
51.6

Item: CCN1CCN(Cc2ccc(Nc3ncc(F)c(-c4cc(F)c5nc(C)n(C(C)C)c5c4)n3)nc2)CC1 + CC(Nc1ncnc2nc[nH]c12)c1cc2cccc(Cl)c2c(=O)n1-c1ccccc1 Test system: MDA-MB-231 multicell spheroids, viability Read-out: viability, T/C Value: ?
70.8

Item: CC(C)n1nc(-c2ccc3oc(N)nc3c2)c2c(N)ncnc21 + Cc1nc(NC(=O)N2CCCC2C(N)=O)sc1-c1ccnc(C(C)(C)C(F)(F)F)c1 Test system: MDA-MB-231 multicell spheroids, viability Read-out: viability, T/C Value: ?
49.1

Item: CCN1CCN(Cc2ccc(Nc3ncc(F)c(-c4cc(F)c5nc(C)n(C(C)C)c5c4)n3)nc2)CC1 + COc1c(OCCCN2CCOCC2)ccc2c3n(c(=NC(=O)c4cnc(N)nc4)nc12)CCN3 Test system: MDA-MB-231 multicell spheroids, viability Read-out: viability, T/C Value: ?
22.5

Item: CC(=O)c1c(C)c2cnc(Nc3ccc(N4CCNCC4)cn3)nc2n(C2CCCC2)c1=O + CC(Nc1ccc2c(c1)OCCn1cc(N3C(=O)OCC3C(F)F)nc1-2)C(N)=O Test system: MDA-MB-231 multicell spheroids, viability Read-out: viability, T/C Value: ?
46.2

Item: CCN1CCN(Cc2ccc(Nc3ncc(F)c(-c4cc(F)c5nc(C)n(C(C)C)c5c4)n3)nc2)CC1 + CC(Nc1ccc2c(c1)OCCn1cc(N3C(=O)OCC3C(F)F)nc1-2)C(N)=O Test system: MDA-MB-231 multicell spheroids, viability Read-out: viability, T/C Value: ?
64.8

Item: CC(=O)c1c(C)c2cnc(Nc3ccc(N4CCNCC4)cn3)nc2n(C2CCCC2)c1=O + Cc1nc(NC(=O)N2CCCC2C(N)=O)sc1-c1ccnc(C(C)(C)C(F)(F)F)c1 Test system: MDA-MB-231 multicell spheroids, viability Read-out: viability, T/C Value: ?
59

Item: CC(C)n1nc(-c2ccc3oc(N)nc3c2)c2c(N)ncnc21 + COc1c(OCCCN2CCOCC2)ccc2c3n(c(=NC(=O)c4cnc(N)nc4)nc12)CCN3 Test system: MDA-MB-231 multicell spheroids, viability Read-out: viability, T/C Value: ?
23

Item: Cn1ncnc1[C@H]1c2n[nH]c(=O)c3cc(F)cc(c23)N[C@@H]1c1ccc(F)cc1 + CC(Nc1ncnc2nc[nH]c12)c1cc2cccc(Cl)c2c(=O)n1-c1ccccc1 Test system: MDA-MB-231 multicell spheroids, viability Read-out: viability, T/C Value: ?
78

Item: CC(C)n1nc(-c2ccc3oc(N)nc3c2)c2c(N)ncnc21 + CC(Nc1ncnc2nc[nH]c12)c1cc2cccc(Cl)c2c(=O)n1-c1ccccc1 Test system: MDA-MB-231 multicell spheroids, viability Read-out: viability, T/C Value: ?
68.5

Item: CCN1CCN(Cc2ccc(Nc3ncc(F)c(-c4cc(F)c5nc(C)n(C(C)C)c5c4)n3)nc2)CC1 + Cc1nc(NC(=O)N2CCCC2C(N)=O)sc1-c1ccnc(C(C)(C)C(F)(F)F)c1 Test system: MDA-MB-231 multicell spheroids, viability Read-out: viability, T/C Value: ?
57.3

Item: CC(=O)c1c(C)c2cnc(Nc3ccc(N4CCNCC4)cn3)nc2n(C2CCCC2)c1=O + CC(Nc1ncnc2nc[nH]c12)c1cc2cccc(Cl)c2c(=O)n1-c1ccccc1 Test system: MDA-MB-231 multicell spheroids, viability Read-out: viability, T/C Value: ?
65.1

---

# Test system: MDA-MB-231 multicell spheroids, viability
# assay-summary: Anticancer human tumor MDA-MB-231 cell line growth inhibition [PI3K];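 also: spheroids exposed to agents for seven days before reading; percent of vehicle control luminescence with DMSO treated spheroids as 100%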
# conditions-used: second compound 0.1 µM; first compound 3.16 µM; active compounds read low
Labelling: viability, T/C reported below 60% becomes YES; at or above becomes NO.

Does the reported viability, T/C of Cn1ncc(Cl)c1-c1cc(C(=O)NC(CN)Cc2cccc(F)c2)sc1Cl (stereo unspecified) + Cc1nc(NC(=O)N2CCCC2C(N)=O)sc1-c1ccnc(C(C)(C)C(F)(F)F)c1 stay below 60%?
YES

Does the reported viability, T/C of Cn1nccc1Nc1nccc(-c2ccn(C(CO)c3ccc(Cl)c(F)c3)c(=O)c2)n1 (stereo unspecified) + Cc1nc(NC(=O)N2CCCC2C(N)=O)sc1-c1ccnc(C(C)(C)C(F)(F)F)c1 stay below 60%?
YES

Does the reported viability, T/C of Cn1ncc(Cl)c1-c1cc(C(=O)NC(CN)Cc2cccc(F)c2)sc1Cl (stereo unspecified) + COc1c(OCCCN2CCOCC2)ccc2c3n(c(=NC(=O)c4cnc(N)nc4)nc12)CCN3 stay below 60%?
YES

Does the reported viability, T/C of CC(Cn1ccc(-c2ccc(C#N)c(Cl)c2)n1)NC(=O)c1cc(C(C)O)[nH]n1 (stereo unspecified) + CC(Nc1ccc2c(c1)OCCn1cc(N3C(=O)OCC3C(F)F)nc1-2)C(N)=O stay below 60%?
NO

Does the reported viability, T/C of Cn1nccc1Nc1nccc(-c2ccn(C(CO)c3ccc(Cl)c(F)c3)c(=O)c2)n1 (stereo unspecified) + CC(Nc1ncnc2nc[nH]c12)c1cc2cccc(Cl)c2c(=O)n1-c1ccccc1 stay below 60%?
YES

Does the reported viability, T/C of CC(Cn1ccc(-c2ccc(C#N)c(Cl)c2)n1)NC(=O)c1cc(C(C)O)[nH]n1 (stereo unspecified) + CC(Nc1ncnc2nc[nH]c12)c1cc2cccc(Cl)c2c(=O)n1-c1ccccc1 stay below 60%?
NO

Does the reported viability, T/C of CNC(=O)c1ccc(N2C(=S)N(c3ccc(C#N)c(C(F)(F)F)c3)C(=O)C2(C)C)cc1F + COc1c(OCCCN2CCOCC2)ccc2c3n(c(=NC(=O)c4cnc(N)nc4)nc12)CCN3 stay below 60%?
YES

Does the reported viability, T/C of CC1(C)CCC(Nc2ncc(C(F)(F)F)c(-c3c[nH]c4c(P(C)(C)=O)c(C#N)ccc34)n2)CN1 (stereo unspecified) + CC(Nc1ncnc2nc[nH]c12)c1cc2cccc(Cl)c2c(=O)n1-c1ccccc1 stay below 60%?
YES

Does the reported viability, T/C of CC1(C)CCC(CN2CCN(c3ccc(C(=O)NS(=O)(=O)c4ccc(NCC5CCOCC5)c([N+](=O)[O-])c4)c(Oc4cnc5[nH]ccc5c4)c3)CC2)=C(c2ccc(Cl)cc2)C1 + CC(Nc1ccc2c(c1)OCCn1cc(N3C(=O)OCC3C(F)F)nc1-2)C(N)=O stay below 60%?
NO

Does the reported viability, T/C of C#Cc1c(F)ccc2cc(O)cc(-c3ncc4c(N5CC6CCC(C5)N6)nc(OCC56CCCN5CC(F)C6)nc4c3F)c12 (stereo unspecified) + Cc1nc(NC(=O)N2CCCC2C(N)=O)sc1-c1ccnc(C(C)(C)C(F)(F)F)c1 stay below 60%?
NO

---

# Tested on: MDA-MB-231 multicell spheroids, viability
# assay-summary: Anticancer human tumor MDA-MB-231 cell line growth inhibition [PI3K];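 also: spheroids exposed to agents for seven days before reading; percent of vehicle control luminescence with DMSO treated spheroids as 100%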
# conditions-used: second compound 0.0316 µM; first compound 0.1 µM; active compounds read low
attribute-measured: viability, T/C (%)
Write it as a number; the unit % goes unstated.

Reported viability, T/C, molecule Cn1ncnc1[C@H]1c2n[nH]c(=O)c3cc(F)cc(c23)N[C@@H]1c1ccc(F)cc1 + CC(Nc1ncnc2nc[nH]c12)c1cc2cccc(Cl)c2c(=O)n1-c1ccccc1 : ____
77.1

Reported viability, T/C, molecule C[C@@H](NC(=O)c1ncnc(N)c1Cl)c1ncc(C(=O)Nc2cc(C(F)(F)F)c(Cl)cn2)s1 + CC(Nc1ncnc2nc[nH]c12)c1cc2cccc(Cl)c2c(=O)n1-c1ccccc1 : ____
120

Reported viability, T/C, molecule C[C@@H](NC(=O)c1ncnc(N)c1Cl)c1ncc(C(=O)Nc2cc(C(F)(F)F)c(Cl)cn2)s1 + CC(Nc1ccc2c(c1)OCCn1cc(N3C(=O)OCC3C(F)F)nc1-2)C(N)=O : ____
75.1

Reported viability, T/C, molecule Cn1ncnc1[C@H]1c2n[nH]c(=O)c3cc(F)cc(c23)N[C@@H]1c1ccc(F)cc1 + COc1c(OCCCN2CCOCC2)ccc2c3n(c(=NC(=O)c4cnc(N)nc4)nc12)CCN3 : ____
46.1

Reported viability, T/C, molecule CC(Cn1ccc(-c2ccc(C#N)c(Cl)c2)n1)NC(=O)c1cc(C(C)O)[nH]n1 (configuration not stated) + CC(Nc1ncnc2nc[nH]c12)c1cc2cccc(Cl)c2c(=O)n1-c1ccccc1 : ____
95.7

Reported viability, T/C, molecule CC(=O)c1c(C)c2cnc(Nc3ccc(N4CCNCC4)cn3)nc2n(C2CCCC2)c1=O + Cc1nc(NC(=O)N2CCCC2C(N)=O)sc1-c1ccnc(C(C)(C)C(F)(F)F)c1 : ____
42.5

Reported viability, T/C, molecule CC(C)n1nc(-c2ccc3oc(N)nc3c2)c2c(N)ncnc21 + COc1c(OCCCN2CCOCC2)ccc2c3n(c(=NC(=O)c4cnc(N)nc4)nc12)CCN3 : ____
21.4

Reported viability, T/C, molecule CCN1CCN(Cc2ccc(Nc3ncc(F)c(-c4cc(F)c5nc(C)n(C(C)C)c5c4)n3)nc2)CC1 + COc1c(OCCCN2CCOCC2)ccc2c3n(c(=NC(=O)c4cnc(N)nc4)nc12)CCN3 : ____
38.4

Reported viability, T/C, molecule Cn1nccc1Nc1nccc(-c2ccn(C(CO)c3ccc(Cl)c(F)c3)c(=O)c2)n1 (configuration not stated) + COc1c(OCCCN2CCOCC2)ccc2c3n(c(=NC(=O)c4cnc(N)nc4)nc12)CCN3 : ____
48.9

Reported viability, T/C, molecule CNC(=O)c1ccc(N2C(=S)N(c3ccc(C#N)c(C(F)(F)F)c3)C(=O)C2(C)C)cc1F + CC(Nc1ccc2c(c1)OCCn1cc(N3C(=O)OCC3C(F)F)nc1-2)C(N)=O : ____
82.5

Reported viability, T/C, molecule CC1(C)CCC(Nc2ncc(C(F)(F)F)c(-c3c[nH]c4c(P(C)(C)=O)c(C#N)ccc34)n2)CN1 (configuration not stated) + CC(Nc1ncnc2nc[nH]c12)c1cc2cccc(Cl)c2c(=O)n1-c1ccccc1 : ____
37.8

Reported viability, T/C, molecule CC(C)n1nc(-c2ccc3oc(N)nc3c2)c2c(N)ncnc21 + CC(Nc1ccc2c(c1)OCCn1cc(N3C(=O)OCC3C(F)F)nc1-2)C(N)=O : ____
25.5

Reported viability, T/C, molecule CC(=O)c1c(C)c2cnc(Nc3ccc(N4CCNCC4)cn3)nc2n(C2CCCC2)c1=O + COc1c(OCCCN2CCOCC2)ccc2c3n(c(=NC(=O)c4cnc(N)nc4)nc12)CCN3 : ____
26.7

Reported viability, T/C, molecule CC1(C)CCC(Nc2ncc(C(F)(F)F)c(-c3c[nH]c4c(P(C)(C)=O)c(C#N)ccc34)n2)CN1 (configuration not stated) + COc1c(OCCCN2CCOCC2)ccc2c3n(c(=NC(=O)c4cnc(N)nc4)nc12)CCN3 : ____
43.2

Reported viability, T/C, molecule C#Cc1c(F)ccc2cc(O)cc(-c3ncc4c(N5CC6CCC(C5)N6)nc(OCC56CCCN5CC(F)C6)nc4c3F)c12 (configuration not stated) + COc1c(OCCCN2CCOCC2)ccc2c3n(c(=NC(=O)c4cnc(N)nc4)nc12)CCN3 : ____
56.3

Reported viability, T/C, molecule CCN1CCN(Cc2ccc(Nc3ncc(F)c(-c4cc(F)c5nc(C)n(C(C)C)c5c4)n3)nc2)CC1 + CC(Nc1ncnc2nc[nH]c12)c1cc2cccc(Cl)c2c(=O)n1-c1ccccc1 : ____
58.9

Reported viability, T/C, molecule CC(Cn1ccc(-c2ccc(C#N)c(Cl)c2)n1)NC(=O)c1cc(C(C)O)[nH]n1 (configuration not stated) + Cc1nc(NC(=O)N2CCCC2C(N)=O)sc1-c1ccnc(C(C)(C)C(F)(F)F)c1 : ____
88.3

Reported viability, T/C, molecule C#Cc1c(F)ccc2cc(O)cc(-c3ncc4c(N5CC6CCC(C5)N6)nc(OCC56CCCN5CC(F)C6)nc4c3F)c12 (configuration not stated) + CC(Nc1ccc2c(c1)OCCn1cc(N3C(=O)OCC3C(F)F)nc1-2)C(N)=O : ____
83.1

Reported viability, T/C, molecule CC(C)n1nc(-c2ccc3oc(N)nc3c2)c2c(N)ncnc21 + CC(Nc1ncnc2nc[nH]c12)c1cc2cccc(Cl)c2c(=O)n1-c1ccccc1 : ____
40.5

Reported viability, T/C, molecule Cn1ncnc1[C@H]1c2n[nH]c(=O)c3cc(F)cc(c23)N[C@@H]1c1ccc(F)cc1 + CC(Nc1ccc2c(c1)OCCn1cc(N3C(=O)OCC3C(F)F)nc1-2)C(N)=O : ____
58.9

Reported viability, T/C, molecule C=CC(=O)N1CCN(c2nc(=O)n(-c3c(C)ccnc3C(C)C)c3nc(-c4c(O)cccc4F)c(F)cc23)C(C)C1 (configuration not stated) + COc1c(OCCCN2CCOCC2)ccc2c3n(c(=NC(=O)c4cnc(N)nc4)nc12)CCN3 : ____
58.9

Reported viability, T/C, molecule Cn1nccc1Nc1nccc(-c2ccn(C(CO)c3ccc(Cl)c(F)c3)c(=O)c2)n1 (configuration not stated) + CC(Nc1ncnc2nc[nH]c12)c1cc2cccc(Cl)c2c(=O)n1-c1ccccc1 : ____
68.8

Data credit: PubChem BioAssay AID1963958
